readout.kind: melting point (°C)

compound	readout.kind	test.value
O=C(O)c1ccc(Br)cc1 [4-Bromobenzoic acid]	melting point	253

(P) Nc1ccccc1Oc1ccccc1 [2-phenoxyaniline]
(Q) Cc1c[nH]c(=O)[nH]c1=O [thymine]
(R) CCCCCC(=O)OC(=O)CCCCC [hexanoic anhydride]
Enquiry: Ordering criterion: melting point; begin with the maximum. Please reply with the labels ordered as requested. Many thanks.
Return: Q, P, R

---

readout.kind: melting point (°C)

compound	melting point, °C
CCOC(=O)c1csc(C)n1 [ethyl 2-methyl-1,3-thiazole-4-carboxylate]	57
Cn1c(=O)ccc2ccccc21	75
CCC(C)=NO [N-Hydroxybutan-2-imine]	-29.5

(a) N#CCc1cccc2ccccc12
(b) C=CCCCCCCCCCCCCCCCC
Enquiry: Would you let me know which has the greater melting point value, a or b ? Respond using the label that marks the chosen record.
Return: a
(a: 34 °C, b: 18 °C)

---

readout.kind: melting point (°C)

molecule	melting point, °C
C=CCCCCCCCCCCCC [1-tetradecene]	-12
CC(=O)OC[C@H]1O[C@H](OC(C)=O)[C@H](OC(C)=O)[C@@H](OC(C)=O)[C@@H]1OC(C)=O [alpha-D-glucose pentaacetate]	111
Cc1ccccc1[N+](=O)[O-] [1-Methyl-2-nitrobenzene]	-10

(a) c1ccc(Oc2cccc(-c3nnn[nH]3)c2)cc1 [5-(3-phenoxyphenyl)-1h-tetrazole]
(b) CCc1ccccc1 [ethylbenzene]
(c) CCCCCCCCCCCCO [Dodecan-1-ol]
(d) OCc1cc(Cl)ccc1O [5-chloro-2-hydroxybenzyl alcohol]
Enquiry: # desc sort on melting point across 4 molecules # list labels per requested ordering
Return: a, d, c, b

---

readout.kind: melting point (°C)

compound	units	melting point
COc1ccc(N=C(CNc2ccc(OC)cc2)Nc2ccc(OC)cc2)cc1	°C	159
CC(N1CCOCC1)S(=O)(=O)O (stereo not drawn)	°C	243
COc1ccc2c(=O)cc(-c3ccccc3)oc2c1	°C	110
NC(=O)/C(=N\Nc1ccc(O)cc1)c1nc2ccccc2s1	°C	161
CCOC(=O)c1ccc(O)cc1 [ethylparaben]	°C	116
Clc1ccc(COC(Cn2ccnc2)c2ccc(Cl)cc2Cl)cc1 (stereo not drawn)	°C	87
O=Cc1cccnc1	°C	8
O=C(O)CCCCCCC(=O)O	°C	143
O=C(O)CC(O)(CC(=O)O)C(=O)O [citric acid, anhydrous]	°C	154
O=C(O)CCCCCCCCCCCCCCCO [16-hydroxyhexadecanoic acid]	°C	99

(A) CCCCOCC [ethyl_butyl_ether]
(B) CC(C)(C(=O)O)c1ccccc1
Enquiry: Of the pair A and B , name the member with the lesser recorded melting point. Record your answer as the label of the chosen record.
Return: A

(a) O=C(OCc1ccccc1)c1ccccc1 [benzyl benzoate]
(b) CC(=O)C(C)C
(c) CC(=O)c1ccc2c(c1)CCO2 [5-acetyl-2,3-dihydrobenzo[b]furan]
Enquiry: Order these by melting point, descending, and give the full ranking. Give the order by naming the labels one after another as requested.
Return: c, a, b
(c: 58 °C, a: 19 °C, b: -92 °C)

---

Structures can show the parent of a compound that is named as a salt.
readout.kind: melting point (°C)

compound	readout.kind	test.value
COc1ccc(C=O)cn1	melting point	51
OCc1ccco1	melting point	-31
O=C(c1ccccc1)c1cccc(Cl)c1	melting point	83
Cc1c(N)cccc1N	melting point	105
CCOC(=O)c1ccccc1C(=O)OCC [diethyl phthalate]	melting point	-64
Oc1cc(Cl)ccc1Cl	melting point	57
OB(O)c1cccc(Cl)c1	melting point	183
C=CCC1(c2ccccc2)C(=O)NC(=O)NC1=O [5-allyl-5-phenylbarbiturate]	melting point	158
OCc1ccccc1I	melting point	92
CC(CCC(=O)O)C1CCC2C3CCC4CC(=O)CCC4(C)C3CC(O)C12C (stereo not given) [12-hydroxy-3-oxocholan-24-oic acid]	melting point	108

(I) COC(=O)c1ccc(O)cc1 [Methyl 4-hydroxybenzoate]
(II) FC(F)(F)c1ccc(Br)nc1
(III) CCOC(=O)CC(O)(CC(=O)OCC)C(=O)OCC [triethyl citrate]
(IV) Cc1cc(C=O)c(C)n1-c1ccccc1
(V) O=C(O)CCCC[C@@H]1SC[C@@H]2NC(=O)N[C@@H]21
Enquiry: Descending sort on melting point required. Your task in answering is to list the labels in the requested order.
Return: V, I, IV, II, III
(V: 232 °C, I: 131 °C, IV: 89 °C, II: 46 °C, III: -55 °C)

---

readout.kind: melting point (°C)

molecule	units	test.value
CC12CCC=C1C1CCC3CC(O)CCC3(C)C1CC2 (stereo not given) [androst-14-en-3-ol]	°C	130

(I) Cn1cc([N+](=O)[O-])c(O)nc1=O [1-Methyl-5-nitropyrimidine-2,4(1H,3H)-dione]
(II) CC(C)(C)OC(=O)N1CCC[C@H]1CO [N-boc-L-prolinol]
Enquiry: // compare measured melting point between I and II ; output the lower one // respond with label for picked entry
Return: II
(II: 61 °C, I: 269 °C)

(a) CCO [Ethanol]
(b) O=C(O)CCC(=O)O [succinic_acid]
Enquiry: In the pair a and b , the larger recorded melting point belongs to which? Your answer should be the label attached to the chosen record.
Return: b

(1) Cc1ccc(-c2ccc(C)cc2)cc1 [4,4'-dimethylbiphenyl]
(2) Cc1ccc(O)c2c1CCC2 [7-methyl-4-indanol]
(3) NC12CC3CC(CC(C3)C1)C2 [Amantadine]
(4) CCCCCCCCCCCCO [1-dodecanol]
Enquiry: # desc sort on melting point across 4 molecules Order the labels as requested and give them as your answer.
Return: 3, 1, 2, 4

---

readout.kind: melting point (°C)

(1) c1ccc2[nH]nnc2c1
(2) N=C(N)N
Enquiry: Which is greater in melting point, the first item 1 or the second item 2 ? Please reply using the label of the selected record.
Return: 1
(1: 98 °C, 2: 50 °C)

---

readout.kind: melting point (°C)

compound	test.value
Cc1cc(Cl)nc(Cl)c1C#N	113

(1) O=C1C=CC(=O)N1c1ccc(Br)cc1 [N-(4-bromophenyl)maleimide]
(2) CCCCOc1ccc(-c2nnc3sc(/C=C/c4ccccc4)nn23)cc1
(3) COC1=C(OC)C(=O)C(C/C=C(\C)CC/C=C(\C)CC/C=C(\C)CC/C=C(\C)CC/C=C(\C)CC/C=C(\C)CC/C=C(\C)CC/C=C(\C)CC/C=C(\C)CCC=C(C)C)=C(C)C1=O
(4) O=c1c(-c2ccc(O)cc2)coc2cc(O)cc(O)c12
(5) C[Si](C)(C)O[Si](C)(C)C
Enquiry: Ordering criterion: melting point; begin with the maximum. Answer format: the labels, ordered as requested.
Return: 4, 1, 2, 3, 5
(4: 302 °C, 1: 129 °C, 2: 80 °C, 3: 49 °C, 5: -67 °C)

---

readout.kind: melting point (°C)

Worked examples, 4 compounds total:
compound	readout.kind	test.value
Oc1ccc(Cl)cc1Cl	melting point	42.5
COc1cccc(/C=C/[N+](=O)[O-])c1OC	melting point	81
O/N=C/C1=C(/C=C/c2ccccc2)CCC1	melting point	163
CCCCCCCC(=O)Oc1ccc(/N=N/c2ccc(CCCC)cc2)cc1 [4-[(E)-(4-butylphenyl)diazenyl]phenyl octanoate]	melting point	64

(I) COCCOC [1,2-dimethyloxyethane]
(II) CC(C)c1ccccc1 [cumene]
Enquiry: Among I and II , which shows a numerically higher melting point result? When you have decided, please share the label of that item.
Return: I

(I) Oc1ccc(/C=C/c2cc(O)cc(O)c2)cc1
(II) Cc1n[nH]cc1-c1ccccc1
Enquiry: Identify the entry with the larger melting point. Options: I and II Returns: label corresponding to the selected item.
Return: I

(1) CC(C)(C)O [2-methyl-2-propanol]
(2) CC(=O)NS(=O)(=O)c1ccc(N)cc1 [N-[(4-Aminophenyl)sulfonyl]acetamide]
(3) N#Cc1cccc(N)c1
(4) Cc1cc(C)c(B(O)O)c(C)c1
Enquiry: # desc sort on melting point across 4 compounds Quick reminder: the answer is the labels in the order asked.
Return: 2, 4, 3, 1
(2: 182 °C, 4: 124 °C, 3: 52 °C, 1: 26 °C)

(I) C#C[C@]1(O)CC[C@H]2[C@@H]3CCC4=CC(=O)CC[C@@H]4[C@H]3CC[C@@]21C
(II) Oc1ccccc1
(III) NC(=O)c1cccnc1 [nicotinamide]
Enquiry: Hello, I need these entries ordered by melting point, highest reading first. Thanks! Reply with the labels, ordered as the question asks.
Return: I, III, II

---

readout.kind: melting point (°C)

Study these solved cases before continuing.
compound	melting point [°C]
CC(=O)c1cc(F)cc(F)c1O [3',5'-difluoro-2'-hydroxyacetophenone]	107
COC(=O)c1cccc(OC(C)=O)c1 [methyl_3-acetoxybenzoate]	29
O=C(Nc1ccc(/C=C/c2ccc(NC(=O)c3ccccc3)cc2)cc1)c1ccccc1 [N,N'-[(E)-ethene-1,2-diyldibenzene-4,1-diyl]dibenzamide]	253
N#CCCCCCCC#N [1,6-dicyanohexane]	-3
CC(=O)c1ccccc1C#N [o-acetyl_benzonitrile]	48
CS(=O)(=O)OCCCCOS(C)(=O)=O [busulfan]	116
Oc1ccc(cc1)C(CC)=C(/CC)c2ccc(O)cc2 [Diethylstilbestrol]	170
ClC1C(Cl)C(Cl)C(Cl)C(Cl)C1Cl (stereo not drawn) [lindane]	114

(P) O=C(c1ccccc1)C(O)c1ccccc1 (stereo not drawn) [2-Hydroxy-1,2-diphenylethanone]
(Q) O=C(O)c1ccc2c(c1)OCO2 [piperonylic acid]
Enquiry: // select label with min value of measured melting point from [ P , Q ] Select an item and report its label.
Return: P
